# STUDY_TARGET: Tryptophan--tRNA ligase (Mycobacterium tuberculosis (strain ATCC 25618 / H37Rv))
# ASSAY_DETAILS: Biochemical assay for Mt-TrpRS
# Assay type: functional
# Design: scale not given: direction of the effect not stated beside the values
# CONDITION_DETAILS: 10 µM
In all, about 65,000 compounds went through this assay and about 65 (0.1%) showed an effect of 50% or more. The list comes from a sample in which strong results are over-represented; it also holds close analogues and randomly drawn compounds.
ASSAY_READOUT: Percent Effect (%)

[[record]]
compound = "Cc1cnn(CC2CCCN2Cc2nnc(C(C)C)o2)c1 (stereo not given)"
numeric_result = 60.5

[[record]]
compound = "O=C1N(CCO)CCCC12CCN(Cc1noc(C3CCCC3)n1)C2 (stereo not given)"
numeric_result = 7.84

[[record]]
compound = "CC(C)N1CCCC2(CCN(Cc3noc(C4CCCC4)n3)C2)C1=O (stereo not given)"
numeric_result = 54.2

[[record]]
compound = "Cn1cnnc1C1CCN(C(=O)c2cc3c(s2)CCC3)CC1"
numeric_result = -1.59

[[record]]
compound = "CNC(=O)c1nc(CN2CCOC(C(F)(F)F)C2)no1 (stereo not given)"
numeric_result = 69.6

[[record]]
compound = "Cc1ncc2c(n1)CN(CC(=O)Nc1cc(C)on1)CC2"
numeric_result = 0.514

[[record]]
compound = "Cn1ccnc1CN1C(=O)CO[C@H]2CN(Cc3ccc(F)c(F)c3)C[C@H]21"
numeric_result = 2.2

[[record]]
compound = "Cc1nn(C)c(N2CCOCC2)c1CN[C@@H]1c2ccccc2C[C@@H]1O"
numeric_result = -6.65

[[record]]
compound = "COc1ccc(CN2C[C@@H]3CN(S(=O)(=O)C4CC4)C[C@@H]3C2=O)cc1"
numeric_result = 2.34

[[record]]
compound = "CCCS(=O)(=O)N1CC[C@H]2O[C@H](c3nnc(C)o3)CC[C@H]21"
numeric_result = -5.84

[[record]]
compound = "Cc1ccc(-c2nnc(CN3CCCCC3Cn3cncn3)o2)cc1 (stereo not given)"
numeric_result = 3.48

[[record]]
compound = "CNC(=O)N1CC[C@@H]2CN(CCc3cccc(OC)c3)S(=O)(=O)[C@@H]2CC1"
numeric_result = -3.31

[[record]]
compound = "Cc1cccc(CN2CC[C@@H]3[C@@H]2CCN3C(=O)c2cc(C)on2)n1"
numeric_result = -0.968

[[record]]
compound = "c1cnc(-c2nc(CN3CCn4c(nnc4C4CC4)C3)cs2)nc1"
numeric_result = -3.46

[[record]]
compound = "O=C(C1=CCCC1)N1CCO[C@H]2[C@@H](OCC3CC3)CC[C@@H]21"
numeric_result = 0.105


###

Listing: Percent Effect of selected molecules
# STUDY_TARGET: Tryptophan--tRNA ligase (Mycobacterium tuberculosis (strain ATCC 25618 / H37Rv))
# ASSAY_DETAILS: Biochemical assay for Mt-TrpRS
# Format: functional
# Parameters: scale not given: direction of the effect not stated beside the values
# CONDITION_DETAILS: 10 µM
Among all 65,000 compounds or so, about 65 (0.1%) showed an effect of 50% or more. For the sample, strong results were picked, then their nearest neighbours and some compounds at random.
ASSAY_READOUT: Percent Effect (%)

[[record]]
molecule = "CN(Cc1nnc2n1CCC2)C(=O)c1ccc2c(c1)OCCO2"
assay_readout = "Percent Effect"
units_of_measure = "%"
numeric_result = 69.5

[[record]]
molecule = "CN(Cc1nnc2n1CCC2)C(=O)c1ccc2c(c1)OCCCO2"
assay_readout = "Percent Effect"
units_of_measure = "%"
numeric_result = 19.8

[[record]]
molecule = "COCC1CC2(CCN(C(=O)c3ccc(F)c(Cl)c3)CC2)CO1 (stereo not given)"
assay_readout = "Percent Effect"
units_of_measure = "%"
numeric_result = 54.8

[[record]]
molecule = "Fc1ccccc1CO[C@@H]1C[C@H]2CN(c3ncccn3)CCN2C1"
assay_readout = "Percent Effect"
units_of_measure = "%"
numeric_result = -4.64

[[record]]
molecule = "COCC1CC2(CCN(C(=O)c3ccc(OC)c(Cl)c3)CC2)CO1 (stereo not given)"
assay_readout = "Percent Effect"
units_of_measure = "%"
numeric_result = -1.65

[[record]]
molecule = "C=C1C(C)(C)[C@H]2CC[C@]1(C(=O)N1CCC(n3cc(CCO)nn3)CC1)C2"
assay_readout = "Percent Effect"
units_of_measure = "%"
numeric_result = 1.01

[[record]]
molecule = "COc1cccc(F)c1CN1CCC(c2nc(C)cc(C)n2)C1 (stereo not given)"
assay_readout = "Percent Effect"
units_of_measure = "%"
numeric_result = 70.2

[[record]]
molecule = "COc1ccc(C(=O)N2CCO[C@H]3[C@@H](OCC4CC4)CC[C@@H]32)cc1F"
assay_readout = "Percent Effect"
units_of_measure = "%"
numeric_result = -0.755

[[record]]
molecule = "Cc1ccc(CN2CC(C(=O)NC(C)C)C3(CCOCC3)C2)s1 (stereo not given)"
assay_readout = "Percent Effect"
units_of_measure = "%"
numeric_result = 0.402

[[record]]
molecule = "CC(c1ccncc1)N1Cc2nc(N(C)C)ncc2C1=O (stereo not given)"
assay_readout = "Percent Effect"
units_of_measure = "%"
numeric_result = 0.86

